These data points were gathered from ChEMBL document CHEMBL1201862.

# Test system: NCI-H522
# PROTOCOL_TEXT: NCI tumour cell line growth inhibition, 48 h
Activity calls are given as the source filed them. Cut-off read from the data, not from the text of the source: active = GI50 up to about 1.1 µM and inactive = higher.
Response enum: active, inactive

Look over these answered cases.
MOLECULE	CATEGORY
Nc1nc(O)c2[nH]cnc2[n+]1[O-]	inactive
CC1=NN(C(=O)Cc2ccccc2)C(=O)/C1=C\c1ccc([N+](=O)[O-])cc1	inactive
O=C1C=C(OCCCl)C(=O)c2c(O)ccc(O)c21	inactive
Nc1nc(N)c(N=O)c(Nc2ccc(O)cc2)n1	inactive
N=c1n(C(=O)N2CCCC2)c2cc(Cl)ccc2n1C1=NCCN1	inactive
Cc1nn(C(=O)c2ccc(Cl)cc2)c2c1C(c1ccccc1O)SC(=N)N2 (configuration not stated)	inactive

Let us examine a further case.
Exam item: State the result this test recorded for CCCCOC(=O)CNC(=O)OC/C=C/C#CC#C/C=C/COC(=O)NCC(=O)OCCCC .
Marked response: inactive

###

# Tested on: UO-31
# PROTOCOL_TEXT: NCI tumour cell line growth inhibition, 48 h
Calls of active or inactive are those of the source. No stated cut-off is given here; in the data, active = GI50 up to about 1.1 µM and inactive = higher. Where a SMILES comes first, the peptide text is derived from it. [ ]: non-standard residue; d: D form. The star is where a group is joined. Phe(4-NO2) = N[CH](Cc1ccc([N+](=O)[O-])cc1)C(=O)O; Boc = CC(C)(C)OC(=O)*
Response enum: active, inactive

COMPOUND	CATEGORY
C=CC(=O)N1C/C(=C\c2ccc(OC)cc2)C(=O)/C(=C/c2ccc(OC)cc2)C1	inactive
COc1ccc2nc(N/N=C/c3ccc(C)s3)cc(C)c2c1	inactive
Oc1ccnc(SCc2ccc(Cl)cc2)n1	inactive
CCOC(=O)Cc1cc(OC)c(OC)cc1/C(Cl)=C(\CO)c1ccc(OC)c(OC)c1	inactive
CC1(Br)S(=O)(=O)OCCOS1(=O)=O	inactive
COc1ccc2c(c1)CC[C@@H]1[C@@H]2CC[C@]2(C)C(=O)/C(=C/c3ccc(OC)c(OC)c3)C[C@@H]12	inactive
CCOC(=O)CCC(NC(=O)C(Cc1ccc([N+](=O)[O-])cc1)NC(=O)OC(C)(C)C)C(=O)NC(CCC(=O)OCC)C(=O)OCC (configuration not stated) (Boc-[Phe(4-NO2)]-Glu(OEt)-Glu(OEt)-OEt; configuration not given here)	inactive
O=C1OC(=O)C23CSCC12C1C=CC3O1 (configuration not stated)	inactive
Cc1nc(Nc2ccc([N+](=O)[O-])cc2)sc1C(/C=C/c1ccc(N(C)C)cc1)=N/NC(=O)c1ccccc1	inactive
c1ccc2sc(C3(N4CCCCC4)CCCC3)cc2c1	inactive

Let us examine a further case.
Exam item: State the result this test recorded for CCCC1(N2C(=O)c3ccc4c5c(ccc(c35)C2=O)N(C2(CCC)CCCCC2)C4=O)CCCCC1 .
Marked response: inactive

###

In this section, each of the compounds is paired with its reported GI50.
# Tested on: DU-145
# PROTOCOL_TEXT: NCI tumour cell line growth inhibition, 48 h
The source made the active and inactive calls. Cut-off read from the data, not from the text of the source: active = GI50 up to about 1.1 µM and inactive = higher.

Solved entries (count: 3):
COMPOUND	GI50
C=CC(=O)N1C/C(=C\c2ccc(OC)cc2)C(=O)/C(=C/c2ccc(OC)cc2)C1	3.91 µM (inactive)
Cc1cc(CN2CCCCC2)c(O)c(CN2CCCCC2)c1	> 100 µM (inactive)
CCc1c(C)c(C#N)c(=S)n(C2OC(COC(C)=O)C(OC(C)=O)C(OC(C)=O)C2OC(C)=O)c1C (stereo not given)	> 100 µM (inactive)

Exam item: Bench note: what GI50 did Brc1cc(CCOC2CCCCO2)c(-c2sccc2CCOC2CCCCO2)s1 (stereo not given) show?
Marked response: > 100 µM (inactive)

Exam item: Bench note: what GI50 did CCOC(=O)c1c(NCc2ccccc2)n(-c2ccccc2)c(=S)n(-c2ccccc2)c1=O show?
Marked response: > 100 µM (inactive)

Exam item: Bench note: what GI50 did COc1cc2c(OC)c3cc(C)oc(=O)c3c(O)c2c(O)c1-c1c(OC)cc2c(OC)c3cc(C)oc(=O)c3c(O)c2c1O show?
Marked response: 33.9 µM (inactive)

Exam item: Bench note: what GI50 did CCCCCCc1cc2cc(-c3csc(CC#N)n3)c(=O)oc2cc1O show?
Marked response: > 100 µM (inactive)

Exam item: Bench note: what GI50 did N#Cc1nc(C(O)c2ccccc2)oc1N (stereo not given) show?
Marked response: > 100 µM (inactive)

Exam item: Bench note: what GI50 did CCOC(=O)N1CCNCCN(C(=O)OCC)CCNCC1 show?
Marked response: > 100 µM (inactive)

Exam item: Bench note: what GI50 did C(=N\c1nc2cc3sc(/N=C/c4cccs4)nc3cc2s1)/c1cccs1 show?
Marked response: > 100 µM (inactive)
